- System: HEK293T (UBE3A T485A transfected, BAR Wnt reporter)
- Assay Protocol: Renilla luciferase signal (cell health) relative to plate median (fold (linear ratio)); higher = higher Renilla signal
- Test Context: concentration: 1 uM; 24 h
In all, about 1,100 compounds were measured (“Renilla luciferase signal (cell health) relative to plate median”: median about 0.97, highest 2% from about 1.6 on). The entries come from a sample that favours the highest values as a whole.
Decide using Renilla luciferase signal: a value greater than or equal to 1 is Satisfied, a smaller one is Not satisfied.

Does Renilla luciferase signal meet or surpass 1 for COCc1cnc(C2=NC(C)(C(C)C)C(=O)N2)c(C(=O)O)c1 (stereo unspecified) [Imazamox] ?
Not satisfied

Does Renilla luciferase signal meet or surpass 1 for CO/C=C(/C(=O)OC)c1ccccc1COc1cccc(C(F)(F)F)n1 [Picoxystrobin] ?
Not satisfied

Does Renilla luciferase signal meet or surpass 1 for CCOC1Oc2ccc(OS(C)(=O)=O)cc2C1(C)C (stereo unspecified) [Ethofumesate] ?
Not satisfied

Does Renilla luciferase signal meet or surpass 1 for ClC(Cl)c1ccccc1 [Benzal chloride] ?
Not satisfied

Does Renilla luciferase signal meet or surpass 1 for CC(C)C1(C)N=C(c2ncccc2C(=O)O)NC1=O (stereo unspecified) [Imazapyr] ?
Not satisfied

Does Renilla luciferase signal meet or surpass 1 for CC1=NNC(=O)N(/N=C/c2cccnc2)C1 [Pymetrozine] ?
Not satisfied

Does Renilla luciferase signal meet or surpass 1 for COc1cc(-c2ccc(N)c(OC)c2)ccc1N.Cl.Cl [3,3'-Dimethoxybenzidine dihydrochloride] ?
Not satisfied

Does Renilla luciferase signal meet or surpass 1 for Nc1cnn(-c2ccccc2)c(=O)c1Cl [Chloridazon] ?
Not satisfied

Does Renilla luciferase signal meet or surpass 1 for CC(C)(C)OOC(C)(C)C [Di-tert-butyl peroxide] ?
Not satisfied

Does Renilla luciferase signal meet or surpass 1 for Oc1ccc2ccc3cccc4ccc1c2c34 [1-Hydroxypyrene] ?
Satisfied

Does Renilla luciferase signal meet or surpass 1 for COc1cc(Cl)c(OC)cc1Cl [Chloroneb] ?
Satisfied

Does Renilla luciferase signal meet or surpass 1 for CCCSP(=O)(OCC)Oc1ccc(Br)cc1Cl (stereo unspecified) [Profenofos] ?
Not satisfied

====

- System: HEK293T (UBE3A T485A transfected, BAR Wnt reporter)
- Assay Protocol: Renilla luciferase signal (cell health) relative to plate median (fold (linear ratio)); higher = higher Renilla signal
- Test Context: concentration: 1 uM; 24 h
In all, about 1,100 compounds were measured (“Renilla luciferase signal (cell health) relative to plate median”: median about 0.97, highest 2% from about 1.6 on). Shown is part of a subset that was picked to be rich in the highest values.
Decide using Renilla luciferase signal: a value greater than or equal to 0.9 is Satisfied, a smaller one is Not satisfied.

Does Renilla luciferase signal meet or surpass 0.9 for `CC(C)(C)c1cc(C(C)(C)C)c(O)c(C(C)(C)C)c1` ?
Satisfied

Does Renilla luciferase signal meet or surpass 0.9 for `ClC(Cl)=C(c1ccc(Cl)cc1)c1ccc(Cl)cc1` ?
Satisfied

Does Renilla luciferase signal meet or surpass 0.9 for `COP(=O)(OC)OC=C(Cl)Cl` ?
Not satisfied

Does Renilla luciferase signal meet or surpass 0.9 for `COc1nc(NC(C)C)nc(NC(C)C)n1` ?
Not satisfied

Does Renilla luciferase signal meet or surpass 0.9 for CCCCNC(=O)OCC#CI [3-Iodo-2-propynyl-N-butylcarbamate] ?
Satisfied

Does Renilla luciferase signal meet or surpass 0.9 for `CS(=O)(=O)c1cc(C(F)(F)F)ccc1C(=O)c1cnoc1C1CC1` ?
Satisfied

Does Renilla luciferase signal meet or surpass 0.9 for `CCOP(=S)(OCC)SCn1c(=O)oc2cc(Cl)ccc21` ?
Satisfied

Does Renilla luciferase signal meet or surpass 0.9 for `CCC(C)(C)c1ccc(O)c(C(C)(C)CC)c1` ?
Satisfied

Does Renilla luciferase signal meet or surpass 0.9 for `CCOc1ccc(C(C)(C)COCc2cccc(Oc3ccccc3)c2)cc1` ?
Satisfied

Does Renilla luciferase signal meet or surpass 0.9 for CC1(C)C(C=C(Cl)Cl)C1C(=O)OC(C#N)c1ccc(F)c(Oc2ccccc2)c1 (stereo not given) ?
Satisfied

Does Renilla luciferase signal meet or surpass 0.9 for `Cc1nc(N(C)C)nc(OC(=O)N(C)C)c1C` ?
Satisfied

Does Renilla luciferase signal meet or surpass 0.9 for `O=C(N[C@H](c1ccccc1)[C@@H]1CN2CCC1CC2)c1c(Cl)ccc(C(F)(F)F)c1Cl` ?
Not satisfied

Does Renilla luciferase signal meet or surpass 0.9 for `Cc1ccn2nc(S(=O)(=O)Nc3c(F)cccc3F)nc2n1` ?
Satisfied

Does Renilla luciferase signal meet or surpass 0.9 for CNC(=O)CSP(=S)(OC)OC [Dimethoate] ?
Satisfied

Does Renilla luciferase signal meet or surpass 0.9 for `CNC(=O)/C=C(\C)OP(=O)(OC)OC` ?
Not satisfied

Does Renilla luciferase signal meet or surpass 0.9 for `COCCOCCO` ?
Satisfied

Does Renilla luciferase signal meet or surpass 0.9 for `Cc1cc(O)ccc1Cl` ?
Satisfied

Does Renilla luciferase signal meet or surpass 0.9 for Cc1cnc(C2=NC(=O)C(C)(C(C)C)N2)c(C(=O)O)c1 (stereo not given) ?
Satisfied

Does Renilla luciferase signal meet or surpass 0.9 for `COc1ccc(O)c(C(C)(C)C)c1` ?
Satisfied

Does Renilla luciferase signal meet or surpass 0.9 for `N=C(Nc1ccccc1)Nc1ccccc1` ?
Satisfied

Does Renilla luciferase signal meet or surpass 0.9 for `O=[N+]([O-])c1ccccc1` ?
Satisfied

Does Renilla luciferase signal meet or surpass 0.9 for `NCCO.O=C(O)c1nc(Cl)ccc1Cl` ?
Satisfied

Does Renilla luciferase signal meet or surpass 0.9 for `O=C1c2ccccc2C(=O)N1SC(Cl)(Cl)Cl` ?
Satisfied

Does Renilla luciferase signal meet or surpass 0.9 for CCC1(c2ccccc2)C(=O)N=C([O-])NC1=O.[Na+] (stereo not given) [Phenobarbital sodium] ?
Not satisfied

Does Renilla luciferase signal meet or surpass 0.9 for `CCCOC/C(=N\c1ccc(Cl)cc1C(F)(F)F)n1ccnc1` ?
Satisfied

Does Renilla luciferase signal meet or surpass 0.9 for `O=C(O)c1nc(Cl)ccc1Cl` ?
Satisfied

Does Renilla luciferase signal meet or surpass 0.9 for `CCC(C)(CC)c1cc(NC(=O)c2c(OC)cccc2OC)on1` ?
Satisfied

Does Renilla luciferase signal meet or surpass 0.9 for `COc1cc2c(c(OC)c1OC)-c1ccc(OC)c(=O)cc1[C@@H](NC(C)=O)CC2` ?
Not satisfied

Does Renilla luciferase signal meet or surpass 0.9 for `CCCCCCCCc1ccc(O)cc1` ?
Satisfied

Does Renilla luciferase signal meet or surpass 0.9 for `O=[N+]([O-])/N=C1\NCCN1Cc1ccc(Cl)nc1` ?
Satisfied

Does Renilla luciferase signal meet or surpass 0.9 for `O=C(O)C(Cl)(Cl)Cl` ?
Satisfied

Does Renilla luciferase signal meet or surpass 0.9 for CN1C2CC(OC(=O)C(CO)c3ccccc3)CC1C1OC12 (stereo not given) ?
Satisfied

Does Renilla luciferase signal meet or surpass 0.9 for `CCOc1nc(F)cc2nc(S(=O)(=O)Nc3c(Cl)cccc3Cl)nn12` ?
Satisfied

====

- System: HEK293T (UBE3A T485A transfected, BAR Wnt reporter)
- Assay Protocol: Renilla luciferase signal (cell health) relative to plate median (fold (linear ratio)); higher = higher Renilla signal
- Test Context: concentration: 0.1 uM; 24 h
Whole data set: some 1,100 compounds, median “Renilla luciferase signal (cell health) relative to plate median” near 0.97, cut for the highest 2% near 1.6. The list comes from a sample in which the highest values are over-represented; it also holds close analogues and randomly drawn compounds.
Task for the reader: assign each of the following molecules its reported Renilla luciferase signal.
Reply with just the number.

Tell me its Renilla luciferase signal on HEK293T (UBE3A T485A transfected, BAR Wnt reporter): CC(C)(C)c1ccccc1O [2-tert-Butylphenol]
0.823

Tell me its Renilla luciferase signal on HEK293T (UBE3A T485A transfected, BAR Wnt reporter): CCC12COCN1COC2 [5-Ethyl-1-aza-3,7-dioxabicyclo[3.3.0]octane]
0.93

Tell me its Renilla luciferase signal on HEK293T (UBE3A T485A transfected, BAR Wnt reporter): ClC(Cl)(Cl)c1ccccc1 [Benzotrichloride]
0.82

Tell me its Renilla luciferase signal on HEK293T (UBE3A T485A transfected, BAR Wnt reporter): O=C1C2CC=CCC2C(=O)N1SC(Cl)(Cl)Cl (stereo unspecified) [Captan]
1.04

Tell me its Renilla luciferase signal on HEK293T (UBE3A T485A transfected, BAR Wnt reporter): O=C(O)c1c(Cl)ccc2cc(Cl)cnc12 [Quinclorac]
1.11

Tell me its Renilla luciferase signal on HEK293T (UBE3A T485A transfected, BAR Wnt reporter): COP(=O)(OC)O/C(C)=C/C(=O)N(C)C [Dicrotophos]
1.16

Tell me its Renilla luciferase signal on HEK293T (UBE3A T485A transfected, BAR Wnt reporter): CSC1=N[C@@](C)(c2ccccc2)C(=O)N1Nc1ccccc1 [Fenamidone]
0.774

Tell me its Renilla luciferase signal on HEK293T (UBE3A T485A transfected, BAR Wnt reporter): CCC(C)Nc1c([N+](=O)[O-])cc(C(C)(C)C)cc1[N+](=O)[O-] (stereo unspecified) [Butralin]
1.06

Tell me its Renilla luciferase signal on HEK293T (UBE3A T485A transfected, BAR Wnt reporter): O=C(Nc1ccccc1)Nc1cnns1 [Thidiazuron]
1.07

Tell me its Renilla luciferase signal on HEK293T (UBE3A T485A transfected, BAR Wnt reporter): CN=C=S [Methyl isothiocyanate]
0.902

Tell me its Renilla luciferase signal on HEK293T (UBE3A T485A transfected, BAR Wnt reporter): CCCN(CC)CC1COC2(CCC(C(C)(C)C)CC2)O1 (stereo unspecified) [Spiroxamine]
1.34

Tell me its Renilla luciferase signal on HEK293T (UBE3A T485A transfected, BAR Wnt reporter): CO/N=C(/C1=NOCCO1)c1ccccc1Oc1ncnc(Oc2ccccc2Cl)c1F [Fluoxastrobin]
0.941

Tell me its Renilla luciferase signal on HEK293T (UBE3A T485A transfected, BAR Wnt reporter): CCCCOC(=O)c1ccccc1C(=O)O [Monobutyl phthalate]
0.862

Tell me its Renilla luciferase signal on HEK293T (UBE3A T485A transfected, BAR Wnt reporter): COc1ccc(O)c(C(C)(C)C)c1 [2-tert-Butyl-4-methoxyphenol]
0.947

Tell me its Renilla luciferase signal on HEK293T (UBE3A T485A transfected, BAR Wnt reporter): COP(=O)(OC)OC=C(Cl)Cl [Dichlorvos]
0.778

Tell me its Renilla luciferase signal on HEK293T (UBE3A T485A transfected, BAR Wnt reporter): CCCCCOC(=O)c1ccccc1C(=O)OCCCCC [Dipentyl phthalate]
0.95

Tell me its Renilla luciferase signal on HEK293T (UBE3A T485A transfected, BAR Wnt reporter): Nc1ccc(/N=N/c2ccccc2)cc1 [4-Aminoazobenzene]
0.476

Tell me its Renilla luciferase signal on HEK293T (UBE3A T485A transfected, BAR Wnt reporter): Cc1ccccc1N [2-Methylaniline]
1.15

Tell me its Renilla luciferase signal on HEK293T (UBE3A T485A transfected, BAR Wnt reporter): CNC(=O)/C=C(\C)OP(=O)(OC)OC [Monocrotophos]
0.815

Tell me its Renilla luciferase signal on HEK293T (UBE3A T485A transfected, BAR Wnt reporter): O=c1n(Cl)c(=O)n(Cl)c(=O)n1Cl [Symclosene]
0.995

Tell me its Renilla luciferase signal on HEK293T (UBE3A T485A transfected, BAR Wnt reporter): CCCCOC(=O)c1ccccc1C(=O)OCCCC [Dibutyl phthalate]
1.04
